System: BJ
Assay: Cytotoxicity against human BJ cells assessed as reduction in cell viability
Type: cell-based
pEC50: −log10 of the molar value.
recorded.endpoint: pEC50

Example entries and their recorded answers appear below.
compound.smiles	pEC50
O=C1CN(C(=O)CN2C[C@H](C(=O)N3CCCCC3)Oc3ccccc32)c2ccccc2N1	< 4.62
O=C(Cc1ccc2c(c1)OCO2)N1CCC(c2nc(=O)c3nnn(Cc4ccccc4F)c3[nH]2)CC1	< 4.62

In: Read the entry "O=C(c1cccc(Nc2nc3ccccc3n3nnnc23)c1)N1CCc2ccccc2C1" and write its reported pEC50.
Out: < 4.62
